Would you kindly list IC50 for each of these compounds?
System tested: human MCH receptor (Homo sapiens (Human))
Sequence (Q99705 whole entry): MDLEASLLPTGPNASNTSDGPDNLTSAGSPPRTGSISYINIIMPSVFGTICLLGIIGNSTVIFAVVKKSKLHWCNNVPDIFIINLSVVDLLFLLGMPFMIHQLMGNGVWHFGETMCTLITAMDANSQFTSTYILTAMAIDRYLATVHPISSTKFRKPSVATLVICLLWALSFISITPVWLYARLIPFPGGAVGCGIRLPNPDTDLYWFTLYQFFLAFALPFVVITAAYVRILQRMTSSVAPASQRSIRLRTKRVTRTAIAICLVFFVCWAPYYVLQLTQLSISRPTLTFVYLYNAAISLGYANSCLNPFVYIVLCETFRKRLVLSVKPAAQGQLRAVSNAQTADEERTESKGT
Method: calcium mobilization assay (FLIPR); functional IC50 values of MCH1R antagonists
Recorded conditions: recombinant HEK293 cell line expressing the human MCH receptor, cellular calcium flux after addition of agonist (MCH)

// query Returns the measured IC50 for the input compound. Input: CN(C(=O)c1ccc(OCC2CC2)cc1)[C@@H]1Cc2ccc(CN3CCCCCC3)cc2C1
// result 139 nM

// query What do you get for CN(C(=O)c1ccc(OCC2CC2)cc1)[C@@H]1Cc2ccc(CN3CC[C@H](O)C3)cc2C1 ?
// result 115 nM

// query What do you get for CC1(C)CCN(Cc2ccc3c(c2)C[C@H](NC(=O)c2ccc(OC[C@@H]4CCCO4)cc2)C3)CC1 ?
// result 208 nM

// query What do you get for CN1CCCC1c1ccc2c(c1)C[C@H](N(C)C(=O)c1ccc(OCC3CC3)cn1)C2 (stereo partly shown) ?
// result 1140 nM
